- Test System: Neurogenic locus notch homolog protein 3 (Homo sapiens)
- Experiment: NOTCH3 binders on small-molecule microarray, primary screen, biochemical, 635/667 nm fluorescence (AID 1096)
- Condition: NOTCH3 binding, 635 nm fluorescence, higher = more signal
For each record, write down the corresponding composite z-score.
Quick one: just the number, no unit, thanks!

composite z-score of CCOC1=C2C(CN(S(=O)(=O)c3ccc(C)cc3)C2c2ccc(C)cc2)C2C(=O)N(c3ccccc3)C(=O)C2C1 (centres undefined) on Neurogenic locus notch homolog protein 3 (Homo sapiens)?
0.875

Item: CC[C@@H]1C=C(C(=O)O)[C@H](c2ccco2)N1S(=O)(=O)c1ccc(C)cc1
-0.14

Another compound: CCCN1C(=O)[C@]2(CCS(=O)(=O)c3ccccc3)N=C(c3ccc(OCCCO)cc3)O[C@@H]2c2ccccc21
1.09

And CCCC[C@@H]1C[C@H]1[C@@H](NC(=O)c1ccco1)c1ccc(C(=O)OC)cc1 ?
-0.64

Same question, O=C(c1ccccc1)N1Cc2ccccc2[C@@H]2OC(c3ccc(OCCCO)cc3)=N[C@]2(Cc2ccccc2)C1=O this time
1.1

Record: O=C(NCc1ccccc1)[C@@]1(Cc2ccccc2)N=C(c2ccc(OCCCO)cc2)O[C@H]1c1ccccc1
0.642

Let us now turn to CCCC[C@H]1OB(O)C[C@H]2C1=C(COc1ccccc1)C[C@H]1C(=O)N(C)C(=O)[C@H]12
0.187

Also COc1ccc([Si](C)(C)[C@H]2[C@H](CCn3cc([C@H](O)c4ccccc4)nn3)O[C@@]3(C(=O)N(Cc4cccc(N5CCOC5=O)c4)c4ccccc43)[C@@H]2C)cc1 , if possible.
1.04

Do the same for C=C(C)C1C(=C)CN([C@H](CO)c2ccccc2)C1=O (some centres undefined) please
0.0316

Okay, and C=CCOC(=O)[C@H]1[C@@H]2C(=O)O[C@@H](c3ccccc3)[C@@H](c3ccccc3)N2[C@@H](c2ccc(OCCOC(=O)[C@H]3C[C@H]4C(=O)N[C@@H](CC(C)C)C(=O)N4[C@H]3c3ccc(O)cc3)cc2)[C@]12C(=O)Nc1ccc(I)cc12 ?
1.12

Also CC(C)C[C@@H]1NC(=O)[C@@H]2C[C@H](C(=O)NCCCCCN)[C@H](c3cccc(OCCO)c3)N2C1=O , if possible.
0.244

Here is the next compound: CCc1oc(CC[C@@H](CO)NC(=O)NCCn2cc(C3(O)CCCCC3)nn2)c(C(=O)OC)c1C(=O)OC
0.939

For COCCOC(=O)N1C(=O)[C@@]2(c3cc(C#Cc4ccc(OC)cc4)ccc31)[C@H](C(=O)N1CCCCCCC1)[C@H]1C(=O)O[C@H](c3ccccc3)[C@H](c3ccccc3)N1[C@@H]2c1ccc(OCCO)cc1 then?
1.01

Moving on to the next compound: CN(C)CCCNC(=O)[C@@]1(c2ccc([N+](=O)[O-])cc2)CC(=O)N(C2CCCCC2)[C@@H]1c1ccc(CO)cc1I
0.215
